# System: MRSA ATCC 700789 VRSA
# procedure-text: MIC, broth microdilution
# Format: cell-based, Staphylococcus aureus
# condition-set: MRSA ATCC 700789 VRSA
Reported MIC values are given for each entry in this list.
Could you kindly put the unit after your number?

[[record]]
molecule = "CCCCCCCC(=O)NC1C(OC2c3ccc(c(Cl)c3)Oc3cc4cc(c3O)Oc3ccc(cc3Cl)CC3NC(=O)C(N)c5ccc(O)c(c5)Oc5cc(O)cc(c5)C(NC3=O)C(=O)NC4C(=O)NC3C(=O)NC2C(=O)NC(C(=O)O)c2cc(O)cc(OC4OC(CO)C(O)C(O)C4O)c2-c2cc3ccc2O)OC(CO)C(O)C1O (centres unmarked)"
quantity_measured = "MIC"
readout_value = "0.5 µg/mL"


query: Read the entry N[C@H]1C(=O)N[C@@H]2Cc3ccc(c(Cl)c3)Oc3cc4cc(c3O)Oc3ccc(cc3Cl)[C@@H](O[C@@H]3O[C@H](CO)[C@@H](O)[C@H](O)[C@H]3NC(=O)CCc3ccccc3)[C@@H]3NC(=O)[C@H](NC(=O)[C@@H]4NC(=O)[C@@H](NC2=O)c2cc(O)cc(c2)Oc2cc1ccc2O)c1ccc(O)c(c1)-c1c(O)cc(O)cc1[C@@H](C(=O)O)NC3=O and write its reported MIC.
result: 0.5 µg/mL

----------
# Test system: MRSA ATCC BAA-38
# procedure-text: MIC, broth microdilution
# Type: cell-based, Staphylococcus aureus
# condition-set: MRSA ATCC BAA-38
MIC vs 0.03 µg/mL: less than gives Fulfilled; not less than gives Not fulfilled.

Reference set, count: 3
[[record]]
molecule = "CC(=O)N[C@H]1[C@H](O[C@@H]2c3ccc(c(Cl)c3)Oc3cc4cc(c3O)Oc3ccc(cc3Cl)C[C@H]3NC(=O)[C@H](N(C)C)c5ccc(O)c(c5)Oc5cc(O)cc(c5)[C@H](NC3=O)C(=O)N[C@H]4C(=O)N[C@H]3C(=O)N[C@@H]2C(=O)N[C@H](C(=O)O)c2cc(O)cc(O)c2-c2cc3ccc2O)O[C@H](CO)[C@@H](O)[C@@H]1O"
label_value = "Not fulfilled"

[[record]]
molecule = "N[C@H]1C(=O)N[C@@H]2Cc3ccc(c(Cl)c3)Oc3cc4cc(c3O)Oc3ccc(cc3Cl)[C@@H](O[C@@H]3O[C@H](CO)[C@@H](O)[C@H](O)[C@H]3NC(=O)CCCCc3ccc(F)cc3)[C@@H]3NC(=O)[C@H](NC(=O)[C@@H]4NC(=O)[C@@H](NC2=O)c2cc(O)cc(c2)Oc2cc1ccc2O)c1ccc(O)c(c1)-c1c(O)cc(O)cc1[C@@H](C(=O)O)NC3=O"
label_value = "Fulfilled"

[[record]]
molecule = "C#CCCC(=O)N[C@H]1[C@H](O[C@@H]2c3ccc(c(Cl)c3)Oc3cc4cc(c3O)Oc3ccc(cc3Cl)C[C@H]3NC(=O)[C@H](N)c5ccc(O)c(c5)Oc5cc(O)cc(c5)[C@H](NC3=O)C(=O)N[C@H]4C(=O)N[C@H]3C(=O)N[C@@H]2C(=O)N[C@H](C(=O)O)c2cc(O)cc(O)c2-c2cc3ccc2O)O[C@H](CO)[C@@H](O)[C@@H]1O"
label_value = "Not fulfilled"


query: Problem: For the molecule CCCCCCCC(=O)N[C@H]1[C@H](O[C@@H]2c3ccc(c(Cl)c3)Oc3cc4cc(c3O)Oc3ccc(cc3Cl)C[C@H]3NC(=O)[C@H](N(C)C)c5ccc(O)c(c5)Oc5cc(O)cc(c5)[C@H](NC3=O)C(=O)N[C@H]4C(=O)N[C@H]3C(=O)N[C@@H]2C(=O)N[C@H](C(=O)O)c2cc(O)cc(O)c2-c2cc3ccc2O)O[C@H](CO)[C@@H](O)[C@@H]1O , is MIC under 0.03 µg/mL?
result: Fulfilled

query: Problem: For the molecule N[C@H]1C(=O)N[C@@H]2Cc3ccc(c(Cl)c3)Oc3cc4cc(c3O)Oc3ccc(cc3Cl)[C@@H](O[C@@H]3O[C@H](CO)[C@@H](O)[C@H](O)[C@H]3NC(=O)CCCCCCCCCCCO)[C@@H]3NC(=O)[C@H](NC(=O)[C@@H]4NC(=O)[C@@H](NC2=O)c2cc(O)cc(c2)Oc2cc1ccc2O)c1ccc(O)c(c1)-c1c(O)cc(O)cc1[C@@H](C(=O)O)NC3=O , is MIC under 0.03 µg/mL?
result: Not fulfilled

query: Problem: For the molecule CCCCCCCC(=O)N[C@H]1[C@H](O[C@@H]2c3ccc(c(Cl)c3)Oc3cc4cc(c3O)Oc3ccc(cc3Cl)C[C@H]3NC(=O)[C@H](N)c5ccc(O)c(c5)Oc5cc(O)cc(c5)[C@H](NC3=O)C(=O)N[C@H]4C(=O)N[C@H]3C(=O)N[C@@H]2C(=O)N[C@H](C(=O)O)c2cc(O)cc(O)c2-c2cc3ccc2O)O[C@H](CO)[C@@H](O)[C@@H]1O , is MIC under 0.03 µg/mL?
result: Fulfilled

query: Problem: For the molecule CCCCCCCC(=O)NC1C(OC2c3ccc(c(Cl)c3)Oc3cc4cc(c3O)Oc3ccc(cc3Cl)CC3NC(=O)C(N)c5ccc(O)c(c5)Oc5cc(O)cc(c5)C(NC3=O)C(=O)NC4C(=O)NC3C(=O)NC2C(=O)NC(C(=O)O)c2cc(O)cc(OC4OC(CO)C(O)C(O)C4O)c2-c2cc3ccc2O)OC(CO)C(O)C1O (stereo not shown) , is MIC under 0.03 µg/mL?
result: Not fulfilled
